Target sequence: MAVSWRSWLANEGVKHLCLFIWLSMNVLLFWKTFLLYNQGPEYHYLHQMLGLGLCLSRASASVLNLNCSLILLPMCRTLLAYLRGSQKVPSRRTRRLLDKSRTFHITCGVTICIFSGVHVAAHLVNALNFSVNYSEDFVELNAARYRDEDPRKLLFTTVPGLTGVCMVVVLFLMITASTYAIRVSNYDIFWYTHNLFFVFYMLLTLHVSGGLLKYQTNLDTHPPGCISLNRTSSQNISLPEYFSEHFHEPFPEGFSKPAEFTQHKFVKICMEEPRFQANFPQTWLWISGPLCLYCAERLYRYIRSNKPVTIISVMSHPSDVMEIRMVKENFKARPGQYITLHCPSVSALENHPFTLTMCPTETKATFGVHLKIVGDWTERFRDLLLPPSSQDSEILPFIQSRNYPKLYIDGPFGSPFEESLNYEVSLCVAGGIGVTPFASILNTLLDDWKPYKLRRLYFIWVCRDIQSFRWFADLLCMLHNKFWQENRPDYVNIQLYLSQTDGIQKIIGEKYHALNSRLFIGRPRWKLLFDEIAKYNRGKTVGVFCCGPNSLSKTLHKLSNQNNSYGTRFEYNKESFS
Recorded Endpoint: IC50

Reported IC50, molecule O=C(Nc1nnc(-c2ccccc2)o1)c1ccc(F)c(C(F)(F)F)c1 : ____ 200 to 300 nM
